# Tested on: endopeptidase from L. lactis subsp. cremoris Wg2
# experimentNotes: Substrate specificity: hydrolysis of peptides by the purified endopeptidase, analysed by thin layer chromatography
# Type: biochemical
# Design: key: +: hydrolysis; -: no hydrolysis detectable
# studyConditions: hydrolysis of the substrate by purified endopeptidase, analysed by TLC
propertyLabel: Activity

{"substance": "Bradykinin (RPPGFSPFR; Bradykinin; UniProt P01042 381-389, looked up)", "propertyLabel": "Activity", "result": "+"}
{"substance": "β-Casein( 33- 48) (FQSEEQQQTEDELQDK; UniProt P02666 48-63, looked up, fragment)", "propertyLabel": "Activity", "result": "-"}
{"substance": "β-Casein(184-202) (DMPIQAFLLYQEPVLGPVR; UniProt P02666 199-217, looked up, fragment)", "propertyLabel": "Activity", "result": "+"}
{"substance": "β-Casein(203-209) (GPFPIIV; UniProt P02666 218-224, looked up, fragment)", "propertyLabel": "Activity", "result": "+"}

* * *

# Tested on: endopeptidase from L. lactis subsp. cremoris Wg2
# experimentNotes: Substrate specificity: hydrolysis of peptides by the purified endopeptidase, analysed by thin layer chromatography
# Type: biochemical
# Set-up: key: +: hydrolysis; -: no hydrolysis detectable
Where a SMILES comes first, the peptide text is derived from it. The star is where a group is joined. pNA = O=[N+]([O-])c1ccc(N*)cc1; Cbz = O=C(OCc1ccccc1)*
propertyLabel: Activity

{"compound": "C[C@H](N)C(=O)N[C@@H](C)C(=O)N[C@@H](C)C(=O)N[C@@H](C)C(=O)N[C@@H](C)C(=O)N[C@@H](C)C(=O)O [Ala6]", "Activity": "-"}
{"compound": "CC(C)C[C@H](NC(=O)[C@H](CC(C)C)NC(=O)[C@@H](N)CC(C)C)C(=O)O [Leu-Leu-Leu] (H-Leu-Leu-Leu-OH)", "Activity": "-"}
{"compound": "C[C@H](NC(=O)CCC(=O)O)C(=O)N[C@@H](C)C(=O)N[C@@H](C)C(=O)Nc1ccc([N+](=O)[O-])cc1 [Nsucc-Ala-Ala-Ala-pNA]", "Activity": "-"}
{"compound": "CC(C)C[C@H](NC(=O)OCc1ccccc1)C(=O)NCC(=O)NCC(=O)Nc1ccc([N+](=O)[O-])cc1 [Z-Leu-Gly-Gly-pNA] (Cbz-Leu-Gly-Gly-pNA)", "Activity": "-"}

Give Activity for all compounds that follow.
1. CC(C)[C@H](NC(=O)[C@@H](N)Cc1ccccc1)C(=O)O [Phe-Val] (H-Phe-Val-OH)
2. C[C@H](N)C(=O)N[C@@H](C)C(=O)N[C@@H](C)C(=O)N[C@@H](C)C(=O)N[C@@H](C)C(=O)O [Ala5]

1. -
2. -
